Recorded LD50 values for a group of molecules are listed next.
- protocol.details: Acute toxicity, LD50 after single oral administration to mice
- run.parameters: mouse, in vivo
Where a name gives a salt, the structure may show the parent alone.
measured.endpoint: LD50

1. CN(C)C[C@@H](c1ccc(Cl)cc1)[C@@H]1CCCC[C@@H]1O (relative stereo) [hydrochloride]
312 to 625 mg/kg
2. CN(C)C[C@@H](c1ccc(O)cc1)[C@@H]1CCCC[C@@H]1O (relative stereo)
500 to 1000 mg/kg
3. COc1ccc([C@H](CN(C)C)[C@@H]2CCCC[C@@H]2O)cc1 (relative stereo) [hydrochloride]
250 to 500 mg/kg
4. COc1ccc([C@H](CN(C)C)[C@@H]2CCCC[C@@H]2O)cc1OC (relative stereo) [hydrochloride]
500 to 1000 mg/kg
5. CN(C)C[C@@H](c1ccc(Cl)cc1)[C@@H]1CCCC[C@@H]1O [hydrochloride]
125 to 250 mg/kg
6. CN(C)C[C@@H](c1ccc(Cl)cc1)[C@@H]1CCCCC1=O (relative stereo) [hydrochloride]
156 to 312 mg/kg
7. CN(C)C[C@@H](c1ccc(Cl)c(Cl)c1)[C@@H]1CCCC[C@@H]1O (relative stereo) [hydrochloride]
62.6 to 125 mg/kg
8. CN(C)C[C@H](c1ccc(Cl)cc1)[C@H]1CCCC[C@H]1O [hydrochloride]
125 to 250 mg/kg
